# testTarget: human wild-type IL-13 (mature chain) (human, UniProt P35225 35-146, Biotinylated on amines (NHS-LC-biotin) in the competition assays. The letters are unchanged.)
# Sequence (P35225 other isoform, or with tags, fused parts or gaps limits assumed): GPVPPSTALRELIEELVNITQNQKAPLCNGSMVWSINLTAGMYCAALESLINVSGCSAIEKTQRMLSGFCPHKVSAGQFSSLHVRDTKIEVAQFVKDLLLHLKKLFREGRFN
# protocolText: cell-based or functional assay
P-STAT6 EC50 values, listed per item
endpointLabel: P-STAT6 EC50 (ng/mL)

binder: mAb Lc-2B03 with Hc2 T31S, M34S, M100L (antibody, V domains shown, full-length mAb, made in HEK293 and CHO) VH: QVTLKESGPVLVKPTETLTLTCTVSGFSLSSYGSGVGWIRQPPGKALEWLAHIWWDDVKRYNPALKSRLTISKDTSKSQVVLTMTNMDPVDTATYYCARLGSDYDVWFDYWGQGTLVTVSS VL: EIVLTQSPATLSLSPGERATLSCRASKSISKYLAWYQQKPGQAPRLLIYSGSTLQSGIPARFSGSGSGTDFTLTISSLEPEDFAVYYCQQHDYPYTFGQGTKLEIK
endpointLabel: P-STAT6 EC50
observedResult: 0.59
//
binder: mAb Lc-2B03 with Hc2 M34E, M100L (antibody, V domains shown, full-length mAb) VH: QVTLKESGPVLVKPTETLTLTCTVSGFSLSTYGEGVGWIRQPPGKALEWLAHIWWDDVKRYNPALKSRLTISKDTSKSQVVLTMTNMDPVDTATYYCARLGSDYDVWFDYWGQGTLVTVSS VL: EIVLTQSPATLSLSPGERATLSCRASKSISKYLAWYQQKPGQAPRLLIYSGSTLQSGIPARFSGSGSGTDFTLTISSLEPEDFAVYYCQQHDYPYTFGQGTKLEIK
endpointLabel: P-STAT6 EC50
observedResult: 0.16
//
binder: mAb Lc-2B03 with Hc2 T31S, M34V, M100L (antibody, V domains shown, full-length mAb, made in HEK293 and CHO) VH: QVTLKESGPVLVKPTETLTLTCTVSGFSLSSYGVGVGWIRQPPGKALEWLAHIWWDDVKRYNPALKSRLTISKDTSKSQVVLTMTNMDPVDTATYYCARLGSDYDVWFDYWGQGTLVTVSS VL: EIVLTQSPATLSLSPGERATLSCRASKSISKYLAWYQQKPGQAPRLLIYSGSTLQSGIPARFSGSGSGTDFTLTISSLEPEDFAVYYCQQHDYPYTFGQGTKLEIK
endpointLabel: P-STAT6 EC50
observedResult: 0.59
//
binder: mAb Lc-2B03 with Hc2 M34E, M100L, V106I (antibody, V domains shown, full-length mAb) VH: QVTLKESGPVLVKPTETLTLTCTVSGFSLSTYGEGVGWIRQPPGKALEWLAHIWWDDVKRYNPALKSRLTISKDTSKSQVVLTMTNMDPVDTATYYCARLGSDYDIWFDYWGQGTLVTVSS VL: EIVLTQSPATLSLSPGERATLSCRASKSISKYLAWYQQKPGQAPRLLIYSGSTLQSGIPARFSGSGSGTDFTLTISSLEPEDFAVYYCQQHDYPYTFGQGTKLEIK
endpointLabel: P-STAT6 EC50
observedResult: 1.79
//
binder: mAb Lc-2B03 with Hc2 M34S, M100L, V106I (antibody, V domains shown, full-length mAb; both are written under this molecule) VH: QVTLKESGPVLVKPTETLTLTCTVSGFSLSTYGSGVGWIRQPPGKALEWLAHIWWDDVKRYNPALKSRLTISKDTSKSQVVLTMTNMDPVDTATYYCARLGSDYDIWFDYWGQGTLVTVSS VL: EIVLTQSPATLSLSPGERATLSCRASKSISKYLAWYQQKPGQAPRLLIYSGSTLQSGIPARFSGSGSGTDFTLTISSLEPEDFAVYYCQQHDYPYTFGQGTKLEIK
endpointLabel: P-STAT6 EC50
observedResult: 1.1
//
binder: mAb Lc-2B03 with Hc2 T31S, M34S, M100L, V106I (antibody, V domains shown, full-length mAb, made in HEK293 and CHO) VH: QVTLKESGPVLVKPTETLTLTCTVSGFSLSSYGSGVGWIRQPPGKALEWLAHIWWDDVKRYNPALKSRLTISKDTSKSQVVLTMTNMDPVDTATYYCARLGSDYDIWFDYWGQGTLVTVSS VL: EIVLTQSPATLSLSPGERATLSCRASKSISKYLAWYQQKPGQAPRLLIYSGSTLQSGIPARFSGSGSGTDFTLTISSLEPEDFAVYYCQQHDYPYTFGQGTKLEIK
endpointLabel: P-STAT6 EC50
observedResult: 0.65
//
binder: mAb Lc-2B03 with Hc2 M34V, M100L (antibody, V domains shown, full-length mAb, made in HEK293 and CHO) VH: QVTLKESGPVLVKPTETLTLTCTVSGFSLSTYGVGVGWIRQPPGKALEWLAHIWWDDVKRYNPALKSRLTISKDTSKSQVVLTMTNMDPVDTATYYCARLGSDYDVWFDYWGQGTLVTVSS VL: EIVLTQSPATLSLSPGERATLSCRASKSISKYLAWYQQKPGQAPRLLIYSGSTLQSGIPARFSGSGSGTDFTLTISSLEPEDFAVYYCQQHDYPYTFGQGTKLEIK
endpointLabel: P-STAT6 EC50
observedResult: 1.8
//
binder: mAb Lc-2B03 with Hc2 M34Q, M100L (antibody, V domains shown, full-length mAb, made in HEK293 and CHO) VH: QVTLKESGPVLVKPTETLTLTCTVSGFSLSTYGQGVGWIRQPPGKALEWLAHIWWDDVKRYNPALKSRLTISKDTSKSQVVLTMTNMDPVDTATYYCARLGSDYDVWFDYWGQGTLVTVSS VL: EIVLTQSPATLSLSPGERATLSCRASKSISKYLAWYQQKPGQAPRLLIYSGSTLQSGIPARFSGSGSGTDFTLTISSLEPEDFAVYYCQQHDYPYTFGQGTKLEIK
endpointLabel: P-STAT6 EC50
observedResult: 0.87
